All figures here come from paper PMC5295013.

Test system: Gp90 D234A (DNA polymerase, exonuclease-deficient) (Pseudomonas aeruginosa phage PaP1)
Test: SPR
Details: 30 mM Mg2+, 1 mM dCTP (ternary complex); primer 3'-terminal dideoxycytidine (ddC, chain terminator); SPR (Biacore 3000, SA chip, steady-state fit): 40 mM Tris-HCl pH 7.5, 10 mM DTT, 50 mM potassium glutamate, room temperature; 20-600 nM protein; ternary assays …
REPORTED METRIC: pKd
# reply with the number alone; pKd is -log10 of concentration in mol/L

Consider the sequence TTTGCTACAGAGTTATGGTGACGATACGTC / TGAATTCTAATGTAGTATAGTAATCCGCTCTATCGGACGTATCGTCACCATAACTCTGTAGC [30-mer(dd)/62-mer G primer-template] and give its recorded pKd. 7.96
